These data points were gathered from ChEMBL document CHEMBL3994677.

assayed.target: Transient receptor potential cation channel subfamily V member 4 (Rattus norvegicus)
Sequence (Q9ERZ8 whole entry): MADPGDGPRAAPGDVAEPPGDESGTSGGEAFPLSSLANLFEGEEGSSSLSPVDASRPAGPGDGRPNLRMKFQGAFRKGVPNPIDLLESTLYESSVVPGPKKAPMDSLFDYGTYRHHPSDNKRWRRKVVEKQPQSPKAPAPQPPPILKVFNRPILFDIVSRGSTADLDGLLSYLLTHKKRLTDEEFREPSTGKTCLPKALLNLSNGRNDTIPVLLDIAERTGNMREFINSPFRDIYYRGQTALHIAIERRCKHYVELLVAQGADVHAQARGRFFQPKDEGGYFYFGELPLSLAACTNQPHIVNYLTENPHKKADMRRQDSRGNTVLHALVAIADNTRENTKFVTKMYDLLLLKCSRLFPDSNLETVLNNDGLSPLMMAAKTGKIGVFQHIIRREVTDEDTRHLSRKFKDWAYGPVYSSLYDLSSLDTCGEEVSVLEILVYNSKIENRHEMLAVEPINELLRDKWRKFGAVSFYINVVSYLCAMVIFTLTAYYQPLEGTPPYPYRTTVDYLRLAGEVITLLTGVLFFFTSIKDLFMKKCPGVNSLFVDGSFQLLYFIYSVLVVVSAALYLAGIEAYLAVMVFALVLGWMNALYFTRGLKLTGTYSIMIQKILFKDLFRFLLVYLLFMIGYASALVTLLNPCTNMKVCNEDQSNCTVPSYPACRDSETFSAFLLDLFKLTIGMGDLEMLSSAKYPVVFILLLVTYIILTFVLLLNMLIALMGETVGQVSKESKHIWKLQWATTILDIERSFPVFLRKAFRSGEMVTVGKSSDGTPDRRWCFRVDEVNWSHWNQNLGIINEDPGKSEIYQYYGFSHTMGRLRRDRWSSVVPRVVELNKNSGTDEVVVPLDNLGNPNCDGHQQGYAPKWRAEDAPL
method.summary: Antagonist activity at rat TRPV4 expressed in HEK293 cells assessed as inhibition of 4alpha-PDD-induced intracellular calcium after 10 mins in presence of 45Ca2+ by microbeta liquid scintillation counting method
Assay type: cell-based
pIC50: −log10 of the molar value.
measurement.name: pIC50

mol.smiles: CC(C)NCCN(C(C)C)S(=O)(=O)c1ccc(Cl)cc1Cl
assayed.target: Transient receptor potential cation channel subfamily V member 4 (Rattus norvegicus)
data.value: 5.49

----------
assayed.target: UniProt Q9ERZ8
method.summary: Antagonist activity at rat TRPV4 expressed in HEK293 cells assessed as inhibition of GSK634775A-induced calcium influx preincubated for 10 mins followed by GSK634775A addition by […] dye based FLIPR assay
Format: cell-based
List of IC50 values.

mol.smiles: C[C@H](NC(=O)c1c(CN2CCC(C3CCCCC3)CC2)c(-c2cccc(C(F)(F)F)c2)nc2ccccc12)c1ccccc1
cmp: >
IC50 (nM): 25000

mol.smiles: CCOc1ccc2c(C(=O)NC3(c4ccccc4)CC3)c(CN3CCC(N4CCCCC4)CC3)c(-c3cccc(C(F)(F)F)c3)nc2c1
cmp: =
IC50 (nM): 1.6

mol.smiles: O=C(N[C@@H](c1ccccc1)C(F)(F)F)c1c(CN2CCC(N3CCCCC3)CC2)c(-c2cccc(C(F)(F)F)c2)nc2ccccc12
cmp: =
IC50 (nM): 8

mol.smiles: CCOc1ccc2c(C(=O)N[C@H](c3ccccc3)C(F)(F)F)c(CN3CCC(N4CCCCC4)CC3)c(-c3cccc(C(F)(F)F)c3)nc2c1
cmp: =
IC50 (nM): 3.2

mol.smiles: CC(C)(NC(=O)c1c(CN2CCC(N3CCCCC3)CC2)c(-c2cccc(C(F)(F)F)c2)nc2ccccc12)c1ccccc1
cmp: =
IC50 (nM): 40

mol.smiles: COc1ccc2c(C(=O)NC3(c4ccccc4)CC3)c(CN3CCC(N4CCCCC4)CC3)c(-c3cccc(C(F)(F)F)c3)nc2c1
cmp: =
IC50 (nM): 2.5

mol.smiles: C[C@H](NC(=O)c1c(CN2CCC(N3CCCCC3)CC2)c(-c2cccc(Cl)c2)nc2ccccc12)c1ccccc1
cmp: =
IC50 (nM): 8

mol.smiles: C[C@@H](NC(=O)c1c(CN2CCC(N3CCCCC3)CC2)c(-c2cccc(C(F)(F)F)c2)nc2ccccc12)c1ccccc1
cmp: =
IC50 (nM): 400

mol.smiles: Cc1cccc(-c2nc3ccccc3c(C(=O)N[C@@H](C)c3ccccc3)c2CN2CCC(N3CCCCC3)CC2)c1
cmp: =
IC50 (nM): 13

mol.smiles: C[C@H](NC(=O)c1c(CN2CCC(N3CCNCC3)CC2)c(-c2cccc(C(F)(F)F)c2)nc2ccccc12)c1ccccc1
cmp: =
IC50 (nM): 790

mol.smiles: C[C@H](NC(=O)c1c(CN2CCCCC2)c(-c2cccc(C(F)(F)F)c2)nc2ccccc12)c1ccccc1
cmp: >
IC50 (nM): 25000

mol.smiles: C[C@H](NC(=O)c1c(CN2CCC(N3CCCCC3)CC2)c(-c2ccc(Cl)cc2)nc2ccccc12)c1ccccc1
cmp: =
IC50 (nM): 16

mol.smiles: O=C(N[C@H](c1ccccc1)C(F)(F)F)c1c(CN2CCC(N3CCCCC3)CC2)c(-c2cccc(C(F)(F)F)c2)nc2cc(Br)ccc12
cmp: =
IC50 (nM): 3.2

mol.smiles: O=C(NC1(c2ccccc2)CC1)c1c(CN2CCC(N3CCCCC3)CC2)c(-c2cccc(C(F)(F)F)c2)nc2cc(Br)ccc12
cmp: =
IC50 (nM): 2

mol.smiles: C[C@H](NC(=O)c1c(CN2CCC(N(C)C)CC2)c(-c2cccc(C(F)(F)F)c2)nc2ccccc12)c1ccccc1
cmp: =
IC50 (nM): 320
